test system: wheat; experiment: Test A preemergence; assay type: in vivo, Triticum aestivum; conditions: preemergence, 500 g ai/ha, visual injury after approx. 10 days, 0 to 100 scale (0 no effect, 100 complete control)
Text: […]
Recorded Wheat plant response rating by entry
Respond numerically, and do not add a unit to the figure.

Bench note, wheat: entry CCc1cc(-c2ccc(C(F)(F)F)cc2)nn1C(=O)c1ccnc(C(F)(F)F)c1 , its Wheat plant response rating = 0

Lab note: molecule O=C(NCC(F)(F)F)c1cc(I)n(Cc2cccc(C(F)(F)F)c2)n1 tested on wheat; recorded Wheat plant response rating was 0

Simply: CCc1cc(C(=O)NCC(F)(F)F)nn1Oc1cccc(C(F)(F)F)n1 , wheat, Wheat plant response rating = 0

Assay wheat, sample CCc1cc(-c2ccc(C(F)(F)F)cc2)nn1Cc1nc(C(F)(F)F)nn1C , Wheat plant response rating read: 20
